Test system: SF-268 CNS
procedure_summary: NCI tumour cell line growth inhibition, 48 h
Kindly supply the reported GI50 values for the records listed here.

Q: Return reported GI50; argument: `C/C1=C\[C@H](C)C[C@H](C)OC(=O)C[C@H](c2ccc(O)cc2)NC(=O)[C@@H](Cc2c(Br)[nH]c3ccccc23)N(C)C(=O)[C@H](C)NC(=O)[C@@H](C)C1`
A: 35.2 nM

Q: Same thing, different compound: `O=C(c1ccccc1Nc1ccnc(C(F)(F)F)c1)N1CCN(c2cccc(Cl)c2)CC1`
A: 29300 nM

Q: Next up: `COc1ccc(-c2nn(-c3cccc(Cl)c3)cc2C=C(C#N)C#N)cc1`
A: 2500 nM

Q: Likewise for `CCSc1oc(-c2ccccc2)nc1[P+](c1ccccc1)(c1ccccc1)c1ccccc1` ?
A: 331 nM

Q: Request: `COc1cc(-c2cc(-c3ccc(N(C)C)cc3)nc(N3CCOCC3)c2C#N)cc(OC)c1OC`
A: 3730 nM

Q: And CC(CN=C(CC(=O)c1ccc(Br)cc1)c1ccccc1)N=C(CC(=O)c1ccc(Br)cc1)c1ccccc1 (stereo not drawn) ?
A: 29900 nM

Q: Consider next the compound Cc1c[nH]c2c1C13CC1CN(C(=O)c1cc4cc(NC(=O)c5cc6ccccc6o5)ccc4[nH]1)C3=CC2=O (stereo not drawn) in the same way.
A: > 1.17 ng/mL

Q: Same again, this time with `Cn1c2ccccc2c(=Nc2ccccc2)c2c3ccccc3[nH]c21`
A: 436 nM

Q: # iterate: C=C1CCC2C3(C)COC(c4ccc(NC(C)=O)cc4)OC3CCC2(C)C1C/C=C1/C(=O)OCC1O (stereo not drawn)
A: > 100000 nM

Q: Now the same for `CCN(CC)CCN1C(=O)c2c(c(C)c3c(oc4cc(O)ccc43)c2C)C1=O`
A: 1740 nM

Q: Okay, and C=CN1C(=O)OC(c2ccccc2)C1c1ccccc1 (stereo not drawn) ?
A: > 100000 nM

Q: Continue with `CN(C)CCCNc1nn2c(=O)c3ccccc3nc2c2ccccc12`
A: 7250 nM

Q: Continue with `COc1ccc(-c2ccc(/C=C/C(=O)NO)cc2)cc1`
A: 982 nM

These data points were gathered from PubChem BioAssay (NCI).
